Molecular target: Phosphatidylinositol 4,5-bisphosphate 3-kinase catalytic subunit gamma isoform (Homo sapiens, UniProt P48736)
Sequence (P48736 whole entry, canonical isoform): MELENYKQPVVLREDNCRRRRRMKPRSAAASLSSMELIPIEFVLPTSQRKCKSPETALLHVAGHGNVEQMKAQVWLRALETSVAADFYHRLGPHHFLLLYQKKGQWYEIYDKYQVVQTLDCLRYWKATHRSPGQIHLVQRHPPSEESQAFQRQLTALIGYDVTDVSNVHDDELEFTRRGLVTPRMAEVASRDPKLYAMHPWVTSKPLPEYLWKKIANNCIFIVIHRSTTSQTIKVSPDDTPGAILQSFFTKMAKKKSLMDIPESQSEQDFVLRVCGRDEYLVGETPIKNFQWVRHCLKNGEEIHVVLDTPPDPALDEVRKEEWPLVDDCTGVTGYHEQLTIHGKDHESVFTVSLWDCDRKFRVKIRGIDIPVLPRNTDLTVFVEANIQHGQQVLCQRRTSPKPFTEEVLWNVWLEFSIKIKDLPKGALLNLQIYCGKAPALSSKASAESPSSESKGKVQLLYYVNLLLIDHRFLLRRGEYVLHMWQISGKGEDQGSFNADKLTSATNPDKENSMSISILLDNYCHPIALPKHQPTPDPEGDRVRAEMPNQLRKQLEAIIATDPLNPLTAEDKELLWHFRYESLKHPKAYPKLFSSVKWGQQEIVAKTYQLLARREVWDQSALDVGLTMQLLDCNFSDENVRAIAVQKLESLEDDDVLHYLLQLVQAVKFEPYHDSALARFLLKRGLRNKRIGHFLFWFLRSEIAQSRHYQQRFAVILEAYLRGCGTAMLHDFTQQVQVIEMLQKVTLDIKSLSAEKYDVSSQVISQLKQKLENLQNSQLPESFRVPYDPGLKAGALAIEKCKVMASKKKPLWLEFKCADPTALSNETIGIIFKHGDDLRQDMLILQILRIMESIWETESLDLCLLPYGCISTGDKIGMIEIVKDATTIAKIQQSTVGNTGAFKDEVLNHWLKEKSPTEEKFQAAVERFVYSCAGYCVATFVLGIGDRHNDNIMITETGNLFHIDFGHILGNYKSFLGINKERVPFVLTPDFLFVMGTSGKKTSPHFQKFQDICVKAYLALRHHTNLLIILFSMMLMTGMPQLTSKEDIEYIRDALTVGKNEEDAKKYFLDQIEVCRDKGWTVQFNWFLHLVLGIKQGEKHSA
assay-metric: IC50 (nM)

Consider the worked cases shown below.
{"columns": ["molecule", "IC50, nM"],
 "data": [
  ["COCC(=O)NC1CCCN(Cc2cc3nc(-c4cccc5[nH]ccc45)nc(N4CCOCC4)c3s2)C1 (racemic)", 2000],
  ["CC(=O)N(C)[C@H]1CCN(Cc2cc3nc(-c4cnc(N)nc4)nc(N4CCOCC4)c3s2)C1", 15.8]
]}

[I] CN(C1CCN(Cc2cc3nc(-c4cccc5[nH]ncc45)nc(N4CCOCC4)c3s2)CC1)S(C)(=O)=O
[II] COCC(=O)NC1CCN(Cc2cc3nc(-c4cnc(N)nc4)nc(N4CCOCC4)c3s2)C1 (racemic)
Just tell me: smaller IC50 value, I or II ? State the label of the item chosen.
II
(II: 50.1 nM, I: 794 nM)

[P] CC(=O)NC1CCN(Cc2cc3nc(-c4cnc(N)nc4)nc(N4CCOCC4)c3s2)C1 (racemic)
[Q] CNC(=O)N(C)C1CCN(Cc2cc3nc(-c4cccc5[nH]ncc45)nc(N4CCOCC4)c3s2)C1 (racemic)
[R] CC(=O)N(C)C1CCCN(Cc2cc3nc(-c4cccc5[nH]ncc45)nc(N4CCOCC4)c3s2)C1 (racemic)
[S] CC(=O)N(C)C1CCN(Cc2cc3nc(-c4cccc5[nH]ncc45)nc(N4CCOCC4)c3s2)C1 (racemic)
[T] CN(C1CCN(Cc2cc3nc(-c4cnc(N)nc4)nc(N4CCOCC4)c3s2)CC1)S(C)(=O)=O
Arrange the 5 molecules by rising IC50, starting with the smallest. To answer, write out the labels according to the requested order.
T, P, R, S, Q

[1] CC(=O)NC1CCCN(Cc2cc3nc(-c4cccc5[nH]ncc45)nc(N4CCOCC4)c3s2)C1 (racemic)
[2] CC(=O)NC1CCN(Cc2cc3nc(-c4cnc(N)nc4)nc(N4CCOCC4)c3s2)CC1
[3] CN(C1CCCN(Cc2cc3nc(-c4cccc5[nH]ncc45)nc(N4CCOCC4)c3s2)C1)S(C)(=O)=O (racemic)
[4] CNC(=O)NC1CCCN(Cc2cc3nc(-c4cccc5[nH]ncc45)nc(N4CCOCC4)c3s2)C1 (racemic)
[5] CC(=O)NC1CCN(Cc2cc3nc(-c4cccc5[nH]ccc45)nc(N4CCOCC4)c3s2)C1 (racemic)
Order the records, beginning with the lowest IC50 and ending with the highest. Answer with the labels in sequence, matching the requested order.
2, 3, 1, 5, 4
(2: 158 nM, 3: 794 nM, 1: 1260 nM, 5: 2000 nM, 4: 3160 nM)

[P] CS(=O)(=O)NC1CCCN(Cc2cc3nc(-c4cccc5[nH]ccc45)nc(N4CCOCC4)c3s2)C1 (racemic)
[Q] COCC(=O)N(C)C1CCN(Cc2cc3nc(-c4cnc(N)nc4)nc(N4CCOCC4)c3s2)CC1
Consider P and Q . Which of these has its IC50 at a higher number? Give the label of your selection.
P
(P: 1000 nM, Q: 126 nM)
